Assay Comment: Stability of compounds in human plasma
Type: in vitro ADME
Condition: 37°C, 5 µmol/L, 1 h, read-out: Residual percentage (%)
Reported remaining at 1 h, 5 µM values are given for each entry in this list.
Report the figure in % without appending any unit label.

Completed entries (count: 3):
CC[C@@]1(O)C(=O)OCc2c1cc1n(c2=O)Cc2c-1nc1cc(F)c(C)c3c1c2[C@@H](NC(=O)[C@@H](O)C1CC1)CCC3 [11-2]    96.8
CC[C@@]1(O)C(=O)OCc2c1cc1n(c2=O)Cc2c-1nc1cc(F)c(C)c3c1c2C(NC(=O)C[C@@H](C)O)CCC3 (single isomer, unassigned) [6-2]    96.6
CC[C@@]1(O)C(=O)OCc2c1cc1n(c2=O)Cc2c-1nc1cc(F)c(C)c3c1c2[C@@H](NC(=O)CO)CC3 [Dxd]    89.4

Pending compound:
Exercise: Please supply the value of reported remaining at 1 h, 5 µM for the item CC[C@@]1(O)C(=O)OCc2c1cc1n(c2=O)Cc2c-1nc1cc(F)c(C3CC3)c3c1c2C(NC(=O)C[C@@H](C)O)CC3 (single isomer, unassigned) [17-2]
Solution: 90.1

The reported numbers originate from patent EP4692091A1.
